B1: ZNF8 (parent)
chain: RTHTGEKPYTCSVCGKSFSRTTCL

- Variants of: B1
- EXPERIMENTAL_DETAILS: protein stability index of a GFP-peptide fusion (GPS, HEK-293T) (PSI 1-6); higher = more stable;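 also: lentivirally expressed fusions sorted by FACS into six bins by GFP to DsRed ratio, PSI derived from sequencing read proportions per bin multiplied by bin number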
- CONDITION_CONTEXT: c terminus: a fixed tail appended
Kindly supply the reported protein stability index values for the records listed here.
I'd appreciate a reply containing only the number, no unit.

Exercise: Can you share its protein stability index? I mean this variant: E6W
Key: 2.06

Exercise: Continue with G5R
Key: 2.5

Exercise: Could you do the same for E6M , please?
Key: 2.19

Exercise: Moving on to the next variant: K7D
Key: 2.17

Exercise: Request: T21C
Key: 5.19

Exercise: And for S19C ?
Key: 3.7

Exercise: Quick one: H3G
Key: 2.86

Exercise: Try this variant next: G15M
Key: 1.6

Exercise: How about T4P ?
Key: 2.22

Exercise: Follow-up entry: H3C
Key: 2.77

Exercise: Proceed to P8H
Key: 2.63

Exercise: # repeat for T21D
Key: 3.37

Exercise: Okay, and T4H ?
Key: 2.99

Exercise: Try E6G next.
Key: 2.26

Exercise: What about S12R ?
Key: 2.21

Exercise: What do you have for T4W ?
Key: 1.83

Exercise: Follow-up item: S17I
Key: 2.17

Exercise: What do we get for V13M ?
Key: 2.14

Exercise: And for P8L ?
Key: 3.12

Exercise: Try the variant K16A
Key: 1.85

Exercise: Further, for G5W ?
Key: 2.74

Exercise: Again, but for S19R
Key: 3.8

Exercise: Same lookup for G15E , please.
Key: 2.15

Exercise: Moving on to the next variant: K7L
Key: 2.72

Exercise: Now the same for C11L
Key: 2.43

Exercise: Please answer likewise for G5Q
Key: 2.36

Exercise: Entry S12T please
Key: 2.52

Exercise: Moving on to the next variant: L24H
Key: 3.46

Exercise: What do we get for H3A ?
Key: 1.86

Exercise: Now this one: S12G
Key: 2.02

Exercise: What would you report for C14L ?
Key: 2.76

Exercise: Likewise for K7N ?
Key: 2.42

Exercise: Same read-out for K7R ?
Key: 2.49

Exercise: What do you have for P8E ?
Key: 2.95

Exercise: Would you mind doing G5P as well?
Key: 2.4

Exercise: Check T4I too.
Key: 2.13

Exercise: And for G15C ?
Key: 1.83

Exercise: What do you have for T10C ?
Key: 2.83

Exercise: Entry K16Q please
Key: 2.6

Exercise: Then this variant: K7S
Key: 2.47

Exercise: Please give the result for K7F too.
Key: 2.5

Exercise: Subsequent entry: P8F
Key: 2.25

Exercise: Input F18Y
Key: 2.23

Exercise: Would you mind doing T2Q as well?
Key: 2.66

Exercise: Input F18W
Key: 2.43

Exercise: What do we get for C14F ?
Key: 2.1

Exercise: Param item: S19I
Key: 2.07

Exercise: Can you check S12P next?
Key: 2.7

Exercise: Next entry: T21L
Key: 2.83

Exercise: And then T10R , what is it?
Key: 2.51

Exercise: And what about the variant S12V ?
Key: 2.21

Exercise: Cool, now G5C
Key: 2.84

Exercise: Another variant to look at: F18V
Key: 2.5

Exercise: Further, for R20T ?
Key: 2.77

Exercise: Then this variant: E6L
Key: 2.1

Exercise: And for K16N ?
Key: 2.58

Exercise: Also need T4S , thanks.
Key: 2.77

Exercise: Okay, and R20C ?
Key: 5.54

Exercise: Queued: C23D
Key: 2.46

Exercise: Please give the result for T10L too.
Key: 2.05

Exercise: Cool, now T4G
Key: 2.44

Exercise: Cool, now G15A
Key: 1.88

Exercise: And P8Q ?
Key: 3.05

Exercise: Could you do the same for H3D , please?
Key: 2.82

Exercise: Also T21W , if possible.
Key: 1.72

Exercise: F18C , same question.
Key: 3.45

Exercise: What about this variant? S19V
Key: 3.91

Exercise: Try this variant too: H3E
Key: 2.72

Exercise: Thanks! And L24Y ?
Key: 2.48

Exercise: And what about the variant S17E ?
Key: 2.4

Exercise: Next: C23F
Key: 2.11

Exercise: Similarly, C14Q ?
Key: 2.17

Exercise: And then C23Y , what is it?
Key: 2.57

Exercise: How about T22S ?
Key: 1.82
